# System: 616215-338-R-J1-PDC complex spheroid viability;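 also: spheroids exposed to compounds for one week before readout; percent viability relative to DMSO vehicle wells taken as 100%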
# Experiment description: Anticancer human tumor 616215-338-R-J1-PDC patient-derived colon adenocarcinoma cell line growth inhibition [POLQ]
# Test conditions: second compound 0.316 µM; first compound 3.16 µM; stronger effect = lower value
Property label: viability, T/C (%)
Reply with just the number (in %).

Recorded viability, T/C, per entry:
1) C#Cc1c(F)ccc2cc(O)cc(-c3ncc4c(N5CC6CCC(C5)N6)nc(OCC56CCCN5CC(F)C6)nc4c3F)c12 (stereo not given) + COC1C(OC(N)=O)C(O)C(Oc2ccc3c(O)c(NC(=O)c4ccc(O)c(CC=C(C)C)c4)c(=O)oc3c2C)OC1(C)C | 103
2) CCCS(=O)(=O)Nc1ccc(F)c(C(=O)c2c[nH]c3ncc(-c4ccc(Cl)cc4)cc23)c1F + Cc1cccc(N(C)C(=O)C2C(O)CCN2c2nc(C)cc(C(F)(F)F)c2C#N)c1 | 83.4
3) CC1COCCN1c1cc(C2(O)CC3CCC(C2)O3)c2cnn(-c3ccn[nH]3)c2n1 (stereo not given) + COC1C(OC(N)=O)C(O)C(Oc2ccc3c(O)c(NC(=O)c4ccc(O)c(CC=C(C)C)c4)c(=O)oc3c2C)OC1(C)C | 42.7

q: Any idea what viability, T/C came out for COc1cc(C2c3cc4c(cc3C(OC3OC5COC(C)OC5C(O)C3O)C3COC(=O)C23)OCO4)cc(OC)c1O (stereo not given) + Cc1cccc(N(C)C(=O)C2C(O)CCN2c2nc(C)cc(C(F)(F)F)c2C#N)c1 on 616215-338-R-J1-PDC complex spheroid viability?
a: 73.4

q: Any idea what viability, T/C came out for CC1COCCN1c1cc(C2(S(C)(=N)=O)CC2)nc(-c2ccnc3[nH]ccc23)n1 (stereo not given) + COC1C(OC(N)=O)C(O)C(Oc2ccc3c(O)c(NC(=O)c4ccc(O)c(CC=C(C)C)c4)c(=O)oc3c2C)OC1(C)C on 616215-338-R-J1-PDC complex spheroid viability?
a: 97.2
